Hello, the source for this data is PubChem BioAssay AID1996, in case you need it.

Conditions: buffer; pH 7.4; 200.0 µM

- compound: "O=C(CNC(=O)c1ccc(F)cc1)c1ccccc1"
  solubility kinetic: "> 38.6 µg/mL"
- compound: "Cc1cc(=O)[nH]c2ccc(S(=O)(=O)Nc3ccc(O)cc3)cc12"
  solubility kinetic: "> 49.6 µg/mL"
- compound: "O=C(Nc1ccccc1)c1ccccc1OCc1ccc(F)cc1"
  solubility kinetic: "< 0.7 µg/mL"
- compound: "COc1cccc2cc(/C(=N/O)c3ccccc3)oc12"
  solubility kinetic: "< 0.6 µg/mL"
- compound: "O=C(C(c1ccccc1)c1ccccc1)N1CC[C@@]2(O)CCCC[C@H]2C1"
  solubility kinetic: "> 52.4 µg/mL"
- compound: "O=C(NCC1CCCO1)c1cccc2ccccc12 (configuration not stated)"
  solubility kinetic: "> 38.3 µg/mL"
- compound: "Cc1ccc(OCC(=O)N2CCN(C(=O)c3cccc(F)c3)CC2)cc1"
  solubility kinetic: "> 53.5 µg/mL"
- compound: "NC(=O)c1ccccc1"
  solubility kinetic: "> 18.2 µg/mL"
- compound: "CCSc1nnc(NC(=O)c2nc3nc(C)cc(C)n3n2)s1"
  solubility kinetic: "> 50.3 µg/mL"
- compound: "O=C1CCN(C(=O)CCCn2c(=O)oc3ccccc32)CC1"
  solubility kinetic: "> 45.3 µg/mL"
- compound: "O=C(COc1ccccc1Cl)Nc1ccc2oc(=O)ccc2c1"
  solubility kinetic: "< 0.7 µg/mL"
- compound: "Nc1cc(=O)[nH]c(SCC(=O)N2CCCC2)n1"
  solubility kinetic: "> 38.1 µg/mL"
- compound: "Cc1cc([N+](=O)[O-])nn1CC(=O)NCc1ccccc1"
  solubility kinetic: "> 41.1 µg/mL"
- compound: "CCc1noc(C)c1C(=O)OCC(=O)NC(=O)c1ccccc1"
  solubility kinetic: "> 47.4 µg/mL"
- compound: "NC(=O)C1CCN(CC(=O)Nc2ccc3c(c2)OCCO3)CC1"
  solubility kinetic: "> 47.9 µg/mL"
- compound: "C/C(=C\\c1ccccc1F)C(=O)c1c(C)cc(C)[nH]c1=O"
  solubility kinetic: "> 42.8 µg/mL"
- compound: "FC(F)(F)c1ccccc1CN1CCC(Cc2ccccc2)CC1"
  solubility kinetic: "< 0.7 µg/mL"
- compound: "O=C(CCNC(=O)c1ccc([N+](=O)[O-])cc1)Oc1ccc(F)c(F)c1"
  solubility kinetic: "> 52.5 µg/mL"
- compound: "Cc1nn(C)c(Sc2ccccn2)c1[N+](=O)[O-]"
  solubility kinetic: "> 37.5 µg/mL"
- compound: "O=C(CC1NCCNC1=O)NC1Cc2ccccc2C1 (configuration not stated)"
  solubility kinetic: "> 41 µg/mL"
- compound: "Cc1cccc(N2C(=NC(=O)c3ccccc3)SC3CS(=O)(=O)CC32)c1 (configuration not stated)"
  solubility kinetic: "< 0.4 µg/mL"
- compound: "CSc1ccc(CN2CCN(CC=C(C)C)C(CCO)C2)cc1 (configuration not stated)"
  solubility kinetic: "> 50.2 µg/mL"
- compound: "COc1ccc2oc(=O)c(C(=O)NCc3ccco3)cc2c1"
  solubility kinetic: "4.8 µg/mL"
- compound: "COc1cccc(-c2c(C#N)c(N)nc3c2c(=O)nc2sccn23)c1"
  solubility kinetic: "23 µg/mL"
- compound: "Cc1cc(C(=O)Nc2ccc(Cl)cc2)on1"
  solubility kinetic: "3.8 µg/mL"
- compound: "Cn1cnc2c(N/N=C/c3cccs3)ncnc21"
  solubility kinetic: "> 38.7 µg/mL"
- compound: "O=c1[nH]cc(N2CCCCCC2)c(=O)[nH]1"
  solubility kinetic: "> 31.4 µg/mL"
